# System: MDA-N
# Experimental Details: NCI tumour cell line growth inhibition, 48 h
Result Type: TGI

Consider the following illustrative entries.
Compound: O=C(O)CNC(=O)CO/N=C1/C(c2c(O)[nH]c3ccccc23)=Nc2ccccc21
TGI: > 100 µM
//
Compound: COC1=C2CC(C)CC(OC)[C@@H](OC(=O)CCN)[C@H](C)/C=C(\C)C(OC(N)=O)C(OC)/C=C\C=C(/C)C(=O)NC(=CC1=O)C2=O (stereo not given in full)
TGI: 12.7 µM
//
Compound: C=C1C(=O)O[C@@H]2C[C@@]3(C)CCC[C@H](C)C3=C[C@H]12
TGI: 16.6 µM

// each listed compound needs a value for TGI
1. S=C1SC(=Nc2ccccc2)C(=Nc2ccccc2)N1c1ccccc1
2. COc1cc(N=CN(C)C)c2ncccc2c1

OUTPUT:
> 100 µM
56 µM

// each listed compound needs a value for TGI
1. N#Cc1ccc(Oc2nc3ccccc3nc2-c2ccccc2)cc1
2. COc1cc(/C=C2\C[C@H]3[C@@H]4CC=C5C[C@@H](O)CC[C@]5(C)[C@H]4CC[C@]3(C)[C@H]2O)cc(OC)c1OC

OUTPUT:
["> 100 µM", "> 100 µM"]

// each listed compound needs a value for TGI
1. CC(C)=CCC[C@@H](C)C1=C(O)C(Nc2ccccc2Br)=C(C)C(=O)C1=O
2. CN(NC(=O)c1ccco1)C1=NCCN1

OUTPUT:
["27.5 µM", "> 100 µM"]

// each listed compound needs a value for TGI
1. O=C1/C(=C\c2ccc(Cl)cc2Cl)Sc2scc(-c3cccc([N+](=O)[O-])c3)[n+]21
2. CC1CN=C(Nc2ccc(F)cc2F)S1 (stereo not given)
3. COC(OC)C1OC(CO)C(n2cc(C)c(=O)[nH]c2=O)C1O (stereo not given)

OUTPUT:
1: 16.7 µM; 2: > 100 µM; 3: > 100 µM

====

# Tested on: PC-3 prostate
# Experimental Details: NCI tumour cell line growth inhibition, 48 h
Would you kindly list TGI for each of these compounds?
Give bare numbers, in µM.

Query Smiles: COc1ccc(N(CC(=O)NCCC[Te]c2ccccc2)C(=O)c2ccccc2)cc1
Units Text: µM
TGI: 12.6
--
Query Smiles: O=c1[nH]nc(Cc2ccccc2)n1/N=C/c1c(O)ccc2ccccc12
Units Text: µM
TGI: 64

Now examine the next entry.
INPUT: Data request, read-out TGI, for CN(C)c1ccc(N2Cc3ccccc3OC3=C2C(=O)c2c(O)ccc(O)c2C3=O)cn1
OUTPUT: 0.867

====

# System: SK-MEL-28 melanoma
# Experimental Details: NCI tumour cell line growth inhibition, 48 h
Result Type: GI50

Consider the following illustrative entries.
Molecule: COc1ccc(N(CC(=O)NCCC[Te]c2ccccc2)C(=O)c2ccccc2)cc1
Result Type: GI50
Result: 4330 nM
--
Molecule: COc1cc2c3c(n(CCCCOC(=O)C(F)(F)F)c(=O)c2cc1OC)-c1cc2c(cc1C3=O)OCO2
Result Type: GI50
Result: > 100000 nM
--
Molecule: C[C@@H]1CN(C(=O)c2ccc(NC(=O)c3cc(O[C@H](C)c4c(Cl)ccc(F)c4Cl)c(N)nn3)cc2)C[C@H](C)N1
Result Type: GI50
Result: 1750 nM

// each listed molecule needs a value for GI50
1. CC(C)(C)NC(C1=CC(C)(C)c2ccccc2C1=O)c1ccccc1 (centres undefined)
2. Cc1nn(-c2nc3ccccc3s2)c(C)c1Oc1ccccc1O
3. O=[N+]([O-])c1ccc(Br)c([N+](=O)[O-])c1
4. C1=Cc2ccccc2Nc2ccccc21
5. O=C1CC(c2ccc(N3CCOCC3)cc2)(c2ccsc2)NC(=O)C1Sc1ccccc1Cl (centres undefined)
6. COc1ccc2c(c1)C(=O)/C(=C/c1cccc(OCC(=O)Nc3nc4c(s3)CCCC4)c1)O2
7. COc1ccc2nc(-c3cc(-c4cc(OC)c(OC)c(OC)c4)n[nH]3)[nH]c2c1

OUTPUT:
["1600 nM", "10200 nM", "1890 nM", "> 100000 nM", "38400 nM", "1580 nM", "1900 nM"]

// each listed molecule needs a value for GI50
1. C=C1C(=O)O[C@H]2[C@H]1CC/C(COC(=O)CCCCC(=O)OC/C1=C/CC[C@@]3(C)O[C@H]3[C@H]3OC(=O)C(=C)[C@@H]3CC1)=C\CC[C@@]1(C)O[C@@H]21
2. CCCN(CCC)C(=O)C1=Cc2ccc(-c3ccc(C(=O)N4CCCC4)cc3)cc2N=C(N)C1

OUTPUT:
["2850 nM", "8910 nM"]

// each listed molecule needs a value for GI50
1. CC[C@@H](C(=O)[C@@H](C)[C@@H](O)[C@H](C)[C@@H]1O[C@@H]([C@@H](CC)C(=O)O)CC[C@@H]1C)C1O[C@]2(C=CC(=O)[C@]3(CC[C@@](C)([C@H]4CC[C@](O)(CC)[C@H](C)O4)O3)O2)[C@H](C)C[C@@H]1C (some centres undefined)
2. Oc1ccc2cc(Br)ccc2c1-c1c(O)ccc2cc(Br)ccc12

OUTPUT:
["1260 nM", "3680 nM"]

====

# Tested on: NCI-H522 lung
# Experimental Details: NCI tumour cell line growth inhibition, 48 h
Cut-off 5 µM on TGI, inclusive. At or above means T; below means F.

Compound: O=C(/C=C(\O)c1ccc(Cl)cc1)C(=O)N=Nc1c(O)[nH]c2ccc(Br)cc12
Assigned Class: T
--
Compound: O=C(O)/C=C/n1c2ccccc2c(=O)c2ccccc21
Assigned Class: T
--
Compound: COc1ccc2c(c1)C(=O)/C(=C/c1cccc(OCC(=O)Nc3nc4c(s3)CCCC4)c1)O2
Assigned Class: F
--
Compound: CCN(CC)CC(=O)Nc1c(C(N)=O)nnn1Cc1cc(Cl)c(C(=O)c2ccc(Cl)cc2)c(Cl)c1
Assigned Class: T
--
Compound: CC(C)/C(Cl)=N\OC(=O)Nc1cccc(F)c1
Assigned Class: F

INPUT: Could you please find out whether C/C=C(\C)C(=O)N[C@H]1CC[C@]2(C)C3CC[C@@]4(C)C(CC[C@@H]4C(C)N(C)C)C3CCC2[C@H]1OC(C)=O (stereo not given in full) has TGI that meets 5 µM or exceeds it?
OUTPUT: T

INPUT: Could you please find out whether COc1ccc(N(C)S(=O)(=O)c2ccccc2)cc1 has TGI that meets 5 µM or exceeds it?
OUTPUT: T

====

Would you kindly list TGI for each of these compounds?
# System: SF-539 CNS
# Experimental Details: NCI tumour cell line growth inhibition, 48 h
Give bare numbers, in µM.

Query Smiles: CC1=CC(=NC(=O)CBr)C=C/C1=N\S(=O)(=O)c1ccccc1
Units Text: µM
Numeric Value: 12

// each listed compound needs a value for TGI
1. CC(C)/C(Cl)=N\OC(=O)Nc1cccc(F)c1
2. Nc1nc(N)c(N=O)c(Nc2ccc(O)cc2)n1
3. Cn1ccnc1C(=O)/C=C/c1ccc(C(=O)Nc2ccc(Cl)cc2)cc1

OUTPUT:
[35.4, 16.3, 1.42]

====

Would you kindly list TGI for each of these compounds?
# System: HOP-62 NSCLC
# Experimental Details: NCI tumour cell line growth inhibition, 48 h

// each listed compound needs a value for TGI
1. COc1cc(C2c3cc4c(cc3OC(NC3CCCCC3)C2C)OCO4)cc(OC)c1OC (stereo not given)
2. CC(C)(C)NCc1cc(Nc2ccnc3cc(Cl)ccc23)cc(-c2ccc(Cl)cc2)c1O
3. COc1cc(N=CN(C)C)c2ncccc2c1
4. COc1ccc2c(c1)c(-c1ccc(-c3cn(S(=O)(=O)c4ccccc4)c4ccc(OC)cc34)s1)cn2S(=O)(=O)c1ccccc1
5. CCOc1cccc(/C=N/NC(=O)c2ccc(Nc3ccnc(C(F)(F)F)c3)cc2)c1O
6. CC(=O)Oc1ccc2c(c1)Oc1cc(C(C)=O)ccc1C21OC(=O)c2ccccc21 (stereo not given)
7. CC(C)(C)OC(=O)N(O)[C@@H]1C=C[C@H](n2cnc3c(N)ncnc32)C1
8. COc1ccc2c(c1)c(=O)c1ccccc1n2/C=C/C(=O)O

OUTPUT:
["> 64.3 µM", "6.38 µM", "> 100 µM", "> 100 µM", "> 78.5 µM", "> 100 µM", "> 100 µM", "> 100 µM"]

// each listed compound needs a value for TGI
1. O=C(Nc1ccccc1O)c1cccc(NC2=C(Cl)C(=O)N(Cc3ccccc3)C2=O)c1
2. O=C(O)C(CP(=O)(O)O)=C(Cl)Cl
3. N#Cc1c(-c2ccc(Cl)cc2)cc(-c2ccc(Nc3ccnc4cc(C(F)(F)F)ccc34)cc2)[nH]c1=O
4. COC(=O)C1=C2CCC(=O)[C@@]2(C)C(OC(C)=O)C=CC1 (stereo not given in full)
5. O=c1cc(-c2ccccc2)[nH]c2cc(F)c(F)cc12
6. CC(C)=CCC[C@H](C)[C@@H]1CC[C@]2(C)C3CC[C@]4(OC4(C)C)C(CCCO)[C@]3(C)CC[C@@]12C (stereo not given in full)

OUTPUT:
["20.6 µM", "> 100 µM", "> 57.7 µM", "> 100 µM", "> 100 µM", "44.4 µM"]

// each listed compound needs a value for TGI
1. COc1ccc(NC(=O)CC(=O)N2N=C(N3CCCCC3)CC2c2ccccc2)cc1 (stereo not given)
2. COC(=O)C1=C(O)c2cc(OC)c(OC)c(OC)c2[C@H](c2cc(OC)c(OC)c(OC)c2)C1C(=O)OC (stereo not given in full)
3. COC(OC)C1OC(CO)C(n2cc(C)c(=O)[nH]c2=O)C1O (stereo not given)
4. COc1cc(OC)cc(Oc2nc3ccccc3nc2C(=O)O)c1
5. COc1cc(-c2nc(Nc3nc4ccccc4[nH]3)nc(N)c2C#N)cc(OC)c1OC
6. CC1=NN(c2ccccc2)C(=O)C1N=Nc1ccc([As](=O)(O)O)c(O)c1 (stereo not given)

OUTPUT:
["> 100 µM", "> 100 µM", "> 100 µM", "> 100 µM", "53.2 µM", "> 100 µM"]
